Test system: MOLT-4 cells
run-description: MOLT-4 cell viability, MTT assay
Format: cell-based
measurement-parameters: Homo sapiens, MOLT-4, 48 h, 48 h exposure
Strictly below 0.03 µM in IC50: Met. Otherwise: Not met.

Threshold test, IC50 < 0.03 µM: `Cc1cc(N(C)c2nc(C(=O)O)c(CCCOc3ccc(C#CCN4CCCC4)cc3F)s2)nnc1Nc1nc2ccccc2s1`
Met

Threshold test, IC50 < 0.03 µM: `Cc1cc(N(CCCCN2CCC(N)CC2)c2nc(C(=O)O)c(CCCOc3ccc(C#CCN(C)C)cc3F)s2)nnc1Nc1nc2ccccc2s1`
Not met

Threshold test, IC50 < 0.03 µM: `CNCC#Cc1ccc(OCCCc2sc(N(CCCCC[N+](C)(C)CCCO)c3cc(C)c(Nc4nc5ccccc5s4)nn3)nc2C(=O)[O-])c(F)c1`
Not met

Threshold test, IC50 < 0.03 µM: `Cc1cc(N(C)c2nc(C(=O)O)c(C3CCCC3)s2)nnc1Nc1nc2ccccc2s1`
Not met

Threshold test, IC50 < 0.03 µM: `Cc1c(Nc2nc3ccccc3s2)nnc(Nc2nc(C(=O)O)cs2)c1CCCN1CCN(C)CC1`
Not met

Threshold test, IC50 < 0.03 µM: `C#CCCCN(c1cc(C)c(Nc2nc3ccccc3s2)nn1)c1nc(C(=O)O)c(CCCOc2ccc(C#CCNC)cc2F)s1`
Not met

Threshold test, IC50 < 0.03 µM: `Cc1cc(N(C)c2ccc(-c3cnn(CC45CC6CC(CC(C6)C4)C5)c3C)c(C(=O)O)n2)nnc1Nc1nc2ccccc2s1`
Met

====

system-under-test: BCLXL (Homo sapiens, UniProt Q07817, V10N/V9A)
Sequence (Q07817 with tags, fused parts or gaps V9A/V10N): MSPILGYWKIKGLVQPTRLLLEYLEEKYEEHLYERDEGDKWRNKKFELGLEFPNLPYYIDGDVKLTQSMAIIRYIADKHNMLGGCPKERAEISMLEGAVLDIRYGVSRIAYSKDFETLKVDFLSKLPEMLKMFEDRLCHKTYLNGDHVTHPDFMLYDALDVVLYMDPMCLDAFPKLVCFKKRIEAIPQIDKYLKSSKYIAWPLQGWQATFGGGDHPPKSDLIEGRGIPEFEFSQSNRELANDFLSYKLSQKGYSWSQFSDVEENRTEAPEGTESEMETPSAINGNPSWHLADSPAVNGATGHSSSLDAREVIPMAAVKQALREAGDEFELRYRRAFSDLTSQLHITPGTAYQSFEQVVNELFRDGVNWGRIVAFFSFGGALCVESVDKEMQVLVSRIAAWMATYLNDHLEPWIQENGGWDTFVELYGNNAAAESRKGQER
run-description: Fluorescence polarisation assay (PUMA-based probe displacement); also: 20 nM protein, 10 nM fluorescent probe
Hi there, I'd appreciate the recorded pKi for every entry that follows.
Quick note: pKi values are minus log10 of concentrations in mol/L.

pKi lookup needed for `Cc1c(Nc2nc(C(=O)O)c(-c3cnn(CC45CC6CC(CC(C6)C4)C5)c3C)s2)nnc(Nc2nc3ccccc3s2)c1C` , thanks.
7.19

pKi lookup needed for `Cc1c(Nc2nc(C(=O)O)cs2)nnc(Nc2nc3c(C)cccc3s2)c1C` , thanks.
5.72

pKi lookup needed for `Cc1c(Nc2nc(C(=O)O)cs2)nnc(Nc2nc3c(F)cccc3s2)c1C` , thanks.
7.09

pKi lookup needed for `Cc1c(Nc2cccc(C(=O)O)n2)nnc(Nc2nc3ccccc3s2)c1C` , thanks.
6.48

pKi lookup needed for `CCN(c1cc(C)c(Nc2nc3ccccc3s2)nn1)c1nc(C(=O)O)cs1` , thanks.
7.82

pKi lookup needed for `Cc1cc(N(CCN2CCOCC2)c2nc(C(=O)O)cs2)nnc1Nc1nc2ccccc2s1` , thanks.
7.43

pKi lookup needed for `Cc1cc(N(CCCN2CCOCC2)c2nc(C(=O)O)cs2)nnc1Nc1nc2ccccc2s1` , thanks.
7.16

pKi lookup needed for `Cc1cc(N(C)c2nc(C(=O)O)c(N3CC(OCc4ccccc4)C3)s2)nnc1Nc1nc2ccccc2s1` , thanks.
8.24

pKi lookup needed for `O=C(O)c1csc(Nc2ccc(Nc3nc4ccccc4s3)nn2)n1` , thanks.
6.04

pKi lookup needed for `Cc1cc(N(C)c2nc(C(=O)O)c(N3CC[C@H](Oc4ccccc4)C3)s2)nnc1Nc1nc2ccccc2s1` , thanks.
6.96
